The origin of these recorded values is ChEMBL document CHEMBL3351518.

// reported MIC for each item listed
- Test system: Pseudomonas aeruginosa
- assay-remarks: Antimicrobial activity against ciprofloxacin-resistant Pseudomonas aeruginosa AM 85 grown under succinate minimum medium by broth microdilution method
- Type: functional

Example compounds with recorded MIC:
- O=C(CN1CCN(c2cc3c(cc2F)c(=O)c(C(=O)O)cn3C2CC2)CC1)OCC(CCCNC(=O)c1cccc(O)c1O)(CCCNC(=O)c1cccc(O)c1O)CCCNC(=O)c1cccc(O)c1O: > 128 µg/mL
- O=C(NCCCC(CCCNC(=O)c1cccc(O)c1O)(CCCNC(=O)c1cccc(O)c1O)C(=O)N1CCN(c2cc3c(cc2F)c(=O)c(C(=O)O)cn3C2CC2)CC1)c1cccc(O)c1O: > 128 µg/mL
- COC(=O)CN1CCN(c2cc3c(cc2F)c(=O)c(C(=O)O)cn3C2CC2)CC1: > 128 µg/mL
- O=C(O)CN1CCN(c2cc3c(cc2F)c(=O)c(C(=O)O)cn3C2CC2)CC1: 16 µg/mL
- O=C(CCCN1CCN(c2cc3c(cc2F)c(=O)c(C(=O)O)cn3C2CC2)CC1)OCC(CCCNC(=O)c1cccc(O)c1O)(CCCNC(=O)c1cccc(O)c1O)CCCNC(=O)c1cccc(O)c1O: > 128 µg/mL

Problem: Given the entry "O=C(CCN1CCN(c2cc3c(cc2F)c(=O)c(C(=O)O)cn3C2CC2)CC1)OCC(CCCNC(=O)c1cccc(O)c1O)(CCCNC(=O)c1cccc(O)c1O)CCCNC(=O)c1cccc(O)c1O" , report its measured MIC.
Solution: > 128 µg/mL

Problem: Given the entry "O=C(O)c1cn(C2CC2)c2cc(N3CCNCC3)c(F)cc2c1=O" , report its measured MIC.
Solution: 16 µg/mL

Problem: Given the entry "O=C(O)c1cn(C2CC2)c2cc(N3CCN(C(=O)c4cccc(O)c4O)CC3)c(F)cc2c1=O" , report its measured MIC.
Solution: 64 µg/mL

---

- System: Pseudomonas aeruginosa
- assay-remarks: Antimicrobial activity against ciprofloxacin-sensitive Pseudomonas aeruginosa DSM 1117 grown under succinate minimum medium by broth microdilution method
- Format: functional
quantity-name: MIC (mg/L)
Give your result in mg/L as a bare value.

Problem: Given the entry "O=C(O)c1cn(C2CC2)c2cc(N3CCN(C(=O)c4cccc(O)c4O)CC3)c(F)cc2c1=O" , report its measured MIC.
Solution: 32

Problem: Given the entry "O=C(O)CN1CCN(c2cc3c(cc2F)c(=O)c(C(=O)O)cn3C2CC2)CC1" , report its measured MIC.
Solution: 0.125

Problem: Given the entry "O=C(CN1CCN(c2cc3c(cc2F)c(=O)c(C(=O)O)cn3C2CC2)CC1)OCC(CCCNC(=O)c1cccc(O)c1O)(CCCNC(=O)c1cccc(O)c1O)CCCNC(=O)c1cccc(O)c1O" , report its measured MIC.
Solution: 8

Problem: Given the entry "O=C(CCCN1CCN(c2cc3c(cc2F)c(=O)c(C(=O)O)cn3C2CC2)CC1)OCC(CCCNC(=O)c1cccc(O)c1O)(CCCNC(=O)c1cccc(O)c1O)CCCNC(=O)c1cccc(O)c1O" , report its measured MIC.
Solution: 64

Problem: Given the entry "COC(=O)CN1CCN(c2cc3c(cc2F)c(=O)c(C(=O)O)cn3C2CC2)CC1" , report its measured MIC.
Solution: 16

---

- Tested on: Pseudomonas aeruginosa
- assay-remarks: Antimicrobial activity against ciprofloxacin-sensitive Pseudomonas aeruginosa DSM 1117 grown under Mueller-Hinton medium by broth microdilution method
- Format: functional
quantity-name: MIC

• O=C(CN1CCN(c2cc3c(cc2F)c(=O)c(C(=O)O)cn3C2CC2)CC1)OCC(CCCNC(=O)c1cccc(O)c1O)(CCCNC(=O)c1cccc(O)c1O)CCCNC(=O)c1cccc(O)c1O = 8 mg/L
• O=C(O)CN1CCN(c2cc3c(cc2F)c(=O)c(C(=O)O)cn3C2CC2)CC1 = 0.25 mg/L
• O=C(CCN1CCN(c2cc3c(cc2F)c(=O)c(C(=O)O)cn3C2CC2)CC1)OCC(CCCNC(=O)c1cccc(O)c1O)(CCCNC(=O)c1cccc(O)c1O)CCCNC(=O)c1cccc(O)c1O = > 128 mg/L
• COC(=O)CN1CCN(c2cc3c(cc2F)c(=O)c(C(=O)O)cn3C2CC2)CC1 = 8 mg/L
• O=C(NCCCC(CCCNC(=O)c1cccc(O)c1O)(CCCNC(=O)c1cccc(O)c1O)C(=O)N1CCN(c2cc3c(cc2F)c(=O)c(C(=O)O)cn3C2CC2)CC1)c1cccc(O)c1O = > 128 mg/L

Problem: Enter reported MIC observed with Pseudomonas aeruginosa for "O=C(CCCN1CCN(c2cc3c(cc2F)c(=O)c(C(=O)O)cn3C2CC2)CC1)OCC(CCCNC(=O)c1cccc(O)c1O)(CCCNC(=O)c1cccc(O)c1O)CCCNC(=O)c1cccc(O)c1O"
Solution: 64 mg/L

Problem: Enter reported MIC observed with Pseudomonas aeruginosa for "O=C(O)c1cn(C2CC2)c2cc(N3CCN(C(=O)c4cccc(O)c4O)CC3)c(F)cc2c1=O"
Solution: > 128 mg/L
